I'd be grateful if you could share measured TGI for these entries.
# System: HCT-116 colon
# method_summary: NCI tumour cell line growth inhibition, 48 h

INPUT: What value of measured TGI is listed for CC(=O)NC1C(O)C(O)C(CO)OC1n1nc(SCc2ccccc2)c(=O)[nH]c1=O (centres undefined) ?
OUTPUT: > 100 µM

INPUT: What value of measured TGI is listed for N=C1/C(=C/c2ccco2)C(=O)N=C2SC=NN12 ?
OUTPUT: > 100 µM

INPUT: What value of measured TGI is listed for COc1cccc([C@@H]2C/C(=N\NC(=O)C(=O)N[C@@H](C)c3ccccc3)c3cc4c(cc3N2)OCO4)c1 ?
OUTPUT: > 100 µM

INPUT: What value of measured TGI is listed for C/C(=N\NC(=O)c1cccc(S(=O)(=O)N2CCN(C)CC2)c1)c1cc(Cl)ccc1O ?
OUTPUT: > 76.2 µM

---

# System: OVCAR-5 ovarian
# method_summary: NCI tumour cell line growth inhibition, 48 h
assay_readout: TGI

INPUT: Give recorded TGI with OVCAR-5 ovarian for the following molecule: C=CC1CC12C(=O)C1OC2(C)C2C(=O)c3c(O)cccc3C(=O)C12 (stereo not drawn)
OUTPUT: > 100 µM

INPUT: Give recorded TGI with OVCAR-5 ovarian for the following molecule: Clc1ccc(-c2c3nc(c(-c4ccc(Cl)cc4)c4ccc([nH]4)c(-c4ccc(Cl)cc4)c4nc(c(-c5ccc(Cl)cc5)c5ccc2[nH]5)C=C4)C=C3)cc1
OUTPUT: > 100 µM

INPUT: Give recorded TGI with OVCAR-5 ovarian for the following molecule: N#CC1=C(c2ccccc2)NN(Cc2ccccc2)C(c2ccc(Cl)cc2)CC1=O (stereo not drawn)
OUTPUT: > 100 µM

---

# System: SK-MEL-28 melanoma
# method_summary: NCI tumour cell line growth inhibition, 48 h
I'd be grateful if you could share measured TGI for these entries.

INPUT: What value of measured TGI is listed for O=C(c1ccc(-c2ccccc2)cc1)N(Cc1cccnc1)C(=S)N(Cc1cccnc1)C(=O)c1ccc(-c2ccccc2)cc1 ?
OUTPUT: > 100 µM

INPUT: What value of measured TGI is listed for COc1ccc2c(c1)C(=O)c1c-2n(CCCCl)c(=O)c2cc([N+](=O)[O-])ccc12 ?
OUTPUT: > 100 µM

INPUT: What value of measured TGI is listed for O=S(Cc1cnc2ccccc2c1)c1nc2ccccc2nc1-c1cccs1 (stereo not drawn) ?
OUTPUT: 34.9 µM

INPUT: What value of measured TGI is listed for CC(C)(c1ccccc1)c1ccc(Oc2ccc3c(c2)-c2nc-3nc3[nH]c(nc4nc(nc5[nH]c(n2)c2ccc(Oc6ccc(C(C)(C)c7ccccc7)cc6)cc52)-c2cc(Oc5ccc(C(C)(C)c6ccccc6)cc5)ccc2-4)c2ccc(Oc4ccc(C(C)(C)c5ccccc5)cc4)cc32)cc1 ?
OUTPUT: > 100 µM

INPUT: What value of measured TGI is listed for CCCCCCCCCCCCCCCCOP(=O)(O)OP(=O)(O)OCC1OC(n2cnc3c(N)ncnc32)C(O)C1O (stereo not drawn) ?
OUTPUT: 64 µM

INPUT: What value of measured TGI is listed for COc1ccc(C(=O)NNC(=O)c2nsc3ccccc23)cc1 ?
OUTPUT: > 100 µM

INPUT: What value of measured TGI is listed for CO[C@H](C(=O)O[C@H]1C(=O)N2CCC3CCC1C32C)c1ccccc1 (stereo partly drawn) ?
OUTPUT: > 100 µM

INPUT: What value of measured TGI is listed for CSc1ccc(/C=C/C(=O)c2nc3ccccc3[nH]2)cc1 ?
OUTPUT: > 100 µM

INPUT: What value of measured TGI is listed for CCCCCCCCCCCCCCCCCc1cc(Cl)nc(Cl)n1 ?
OUTPUT: > 100 µM

INPUT: What value of measured TGI is listed for Cc1cc(C)nc(NS(=O)(=O)c2ccc(Nc3nc4nc(NCc5ccccc5)nc(-c5ccc(O)cc5)c4c(=O)[nH]3)cc2)n1 ?
OUTPUT: > 100 µM

INPUT: What value of measured TGI is listed for CC1(C)[C@H]2CC[C@](C)(C2)[C@]1(S)Cc1ccccn1 ?
OUTPUT: > 100 µM

INPUT: What value of measured TGI is listed for CC(=O)N(CN1C(=O)CCC1C(=O)O)c1ccc(C)cc1 (stereo not drawn) ?
OUTPUT: > 100 µM

INPUT: What value of measured TGI is listed for Cc1cccc(-c2cccc(COCc3cccc(-c4cccc(CO)n4)n3)n2)n1 ?
OUTPUT: > 50 µM

INPUT: What value of measured TGI is listed for CCOC(=O)NC(=O)c1cn(CC(=O)NCC(=O)NCC(=O)N2CCN(CCn3c(C)nc(C(N)=O)c3N)CC2)c(=O)[nH]c1=O ?
OUTPUT: > 100 µM

INPUT: What value of measured TGI is listed for CCCCCCN(CCCCCC)C1=CC(=O)C(=O)c2ccccc21 ?
OUTPUT: 31.8 µM

INPUT: What value of measured TGI is listed for Nc1ccc([As](=O)(O)O)cc1 ?
OUTPUT: > 100 µM

INPUT: What value of measured TGI is listed for Cc1ccc(C(=O)Nc2ccc(CN3CCN(C)CC3)c(C(F)(F)F)c2)cc1C#Cc1cnc(N)c2ccc(C#N)cc12 ?
OUTPUT: 3.47 µM

INPUT: What value of measured TGI is listed for CC12CCC(=O)N1c1cc([N+](=O)[O-])ccc1N2 (stereo not drawn) ?
OUTPUT: > 100 µM

INPUT: What value of measured TGI is listed for CCOc1cc(/C=N\O)cc(/C=N/O)c1O ?
OUTPUT: > 100 µM

INPUT: What value of measured TGI is listed for OC1C2CCC3C2CC(C(O)(c2ccccc2)c2ccccc2)C13 (stereo not drawn) ?
OUTPUT: > 100 µM

INPUT: What value of measured TGI is listed for C[C@@]1([C@H](OC(=O)c2cccc3ccccc23)C(N)=O)CO1 ?
OUTPUT: 15.2 µM

INPUT: What value of measured TGI is listed for O=C1CC(C(O)C(O)C(O)CO)CC(=O)N1 (stereo not drawn) ?
OUTPUT: > 100 µM

INPUT: What value of measured TGI is listed for COc1cc(-c2nn(-c3ccc(NC(=O)Nc4ccc(Cl)c(C(F)(F)F)c4)cc3)cc2-c2ccncc2)ccc1Cl ?
OUTPUT: 3.9 µM
